Catalogue of TGI values
Tested on: NCI-H460 lung
Test protocol: NCI tumour cell line growth inhibition, 48 h
Property: TGI (µM)

molecule="Cc1ccc(S(=O)(=O)NC(=O)NC(CC(N)=O)C(=O)O)cc1 (stereo unspecified)" experimental_target="NCI-H460 lung" unit_string=µM bound_type=> assay_result=100
molecule=O=C(Nc1ccc(I)cc1)c1cc([N+](=O)[O-])ccc1O experimental_target="NCI-H460 lung" unit_string=µM bound_type== assay_result=56.8
molecule=Fc1ccc(Nc2ncnc3ccc(-c4cnc5[nH]ccc5c4)cc23)cc1Cl experimental_target="NCI-H460 lung" unit_string=µM bound_type== assay_result=4.06
molecule=CCOC(=O)c1c(SC(=O)c2ccc(C(C)(C)C)cc2)n(-c2ccccc2)c(=S)n(-c2ccccc2)c1=O experimental_target="NCI-H460 lung" unit_string=µM bound_type=> assay_result=100
molecule="NC1c2c(Br)sc(N3CCCC3)c2C(=O)C1O (stereo unspecified)" experimental_target="NCI-H460 lung" unit_string=µM bound_type=> assay_result=50
molecule=Cc1ccc(Nc2nc(=O)c3c4ccccc4n(C(=O)OC(C)(C)C)c3s2)cc1 experimental_target="NCI-H460 lung" unit_string=µM bound_type== assay_result=43.1
